System: hEPO mRNA
Experiment: hEPO expression after intramuscular administration to mice
Format: in vivo
Conditions: Table 3I, hEPO
observationType: Lipid/MC3 6 h timepoint
Give the figure by itself; no unit, no explanation.

{"molecule": "CCCCCCCCCOC(=O)CCCCCCCN(CCCCCCCC(=O)OC(CCCCCCCC)CCCCCCCC)CCNC(C)=O [Compound 244]", "Lipid/MC3 6 h timepoint": 0.4}
{"molecule": "CCCCCCCCCOC(=O)CCCCCCCN(CCCCCCCC(=O)OC(CCCCCCCC)CCCCCCCC)CCCN/C(=C/[N+](=O)[O-])NC [Compound 170]", "Lipid/MC3 6 h timepoint": 5.9}
{"molecule": "CCCCCCCCC(C)OC(=O)CCCCCCCN(CCO)CCCCCCCC(=O)OC(CCCCCCCC)CCCCCCCC (stereo not drawn) [Compound 48]", "Lipid/MC3 6 h timepoint": 8.2}
{"molecule": "CCCCCCCCC(CC)OC(=O)CCCCCCCN(CCO)CCCCCCCC(=O)OC(CCCCCCCC)CCCCCCCC (stereo not drawn) [Compound 49]", "Lipid/MC3 6 h timepoint": 11.0}
{"molecule": "CCCCCCCCCOC(=O)CCCCCCCN(CCCCCCCC(=O)OC(CCCCCCCC)CCCCCCCC)CCCN/C(=N/[N+](=O)[O-])NC [Compound 200]", "Lipid/MC3 6 h timepoint": 2.6}

Using known records, supply Lipid/MC3 6 h timepoint for CCCCCCCCCOC(=O)CCCCCCCN(CCCCCCCC(=O)OC(CCCCCCCC)CCCCCCCC)CCCNc1c(NC)c(=O)c1=O [Compound 182]
1.6

Using known records, supply Lipid/MC3 6 h timepoint for CCCCCCCCCOC(=O)CCCCCCCN(CCCCCCCC(=O)OC(CCCCCCCC)CCCCCCCC)CCCNC(=O)COC [Compound 178]
10.4

Using known records, supply Lipid/MC3 6 h timepoint for CCCCCCCCCOC(=O)CCCCCCCN(CCCCCCCC(=O)OC(CCCCCCCC)CCCCCCCC)CCCNc1c(N(C)C)c(=O)c1=O [Compound 169]
4.6

Using known records, supply Lipid/MC3 6 h timepoint for CCCCCCCCCOC(=O)CCCCCCCN(CCCCCCCC(=O)OC(CCCCCCCC)CCCCCCCC)CCCNC(=O)C(C)C [Compound 194]
5.5

====

Reported % EE is given for each of the following compounds.
Experiment: Encapsulation efficiency of RNA (QUANT-IT RIBOGREEN RNA assay)
Format: physicochemical
Settings: Table 1E; compositions for subcutaneous administration
Note: unit % is implicit; provide only the numeric part.

{"compound": "CCCCCCCCCOC(=O)CCCCCCCN(CCCCCCCC(=O)OC(CCCCCCCC)CCCCCCCC)CCCN/C(=N/C#N)N(C)C [Compound 168]", "testResult": 95}

Using known records, supply % EE for CCCCCCCCCOC(=O)CCCCCCCN(CCCCCCCC(=O)OC(CCCCCCCC)CCCCCCCC)CCCNC(=S)N(C)C [Compound 111]
88

Using known records, supply % EE for CCCCC/C=C\C/C=C\CCCCCCCCC(CCCCCCCC/C=C\C/C=C\CCCCC)OC(=O)CCCN(C)C [MC3, DLin-MC3-DMA, reference compound]
98

Using known records, supply % EE for CCCCCCCCCOC(=O)CCCCCCCN(CCCCCCCC(=O)OC(CCCCCCCC)CCCCCCCC)CC(O)CO (centres unmarked) [Compound 69]
99

Using known records, supply % EE for CCCCCCCCC(CCCCCCCC)OC(=O)CCCCCCCN(CCO)CCCCCC(=O)OC(CCCCCCCC)C1CC1 (centres unmarked) [Compound 128]
94

Using known records, supply % EE for CCCC/C=C\CCC(CC/C=C\CCCC)OC(=O)CCCCCCCN(CCO)CCCCCCCC(=O)OCCCCCCCCC [Compound 60]
88

Using known records, supply % EE for CCCCCCCCCOC(=O)CCCCCCCN(CCCCCCCC(=O)OC(CCCCCCCC)CCCCCCCC)CCCNC(C)=O [Compound 108]
96

Using known records, supply % EE for CCCCCCCCCOC(=O)CCCCCCCN(CCO)CCCCCCCCCC(=O)OC(CCCCCCCC)CCCCCCCC [Compound 23]
98

====

Reported Lipid Purity is given for each of the following compounds.
Assay: Chemical stability of lipids in ethanol (lipid purity)
Format: physicochemical
Details: t = 0
Note: unit % is implicit; provide only the numeric part.

Here's what some known entries look like.
{"smilesText": "CCCCCCCCCOC(=O)CCCN(CCO)CCCCCCCC(=O)OC(CCCCCCCC)CCCCCCCC", "Lipid Purity, %": 98.64}
{"smilesText": "CCCCCCCCCOC(=O)CCCCCCCN(CCO)CCCCCCCC(=O)OCCCCCCCCC", "Lipid Purity, %": 97.59}
{"smilesText": "CCCCCCCCCOC(=O)CCCCCCCN(CCCCCCCC(=O)OC(CCCCCCCC)CCCCCCCC)CCN(C)C", "Lipid Purity, %": 92.08}

Using known records, supply Lipid Purity for "CCCCCCCCC(CCCCCCCC)OC(=O)CCCCCCCN(CCO)CCCCCCCC(=O)OC(CCCCCCCC)CCCCCCCC"
97.017

====

Test: Encapsulation efficiency of RNA (QUANT-IT RIBOGREEN RNA assay)
Assay type: physicochemical
Conditions: Table 1A
Description: For nanoparticle compositions including an RNA, a QUANT-IT™ RIBOGREEN® RNA assay (Invitrogen Corporation Carlsbad, CA) can be used to evaluate the encapsulation of an RNA by the nanoparticle composition. […] The fluorescence intensity can be measured using a fluorescence plate reader (Wallac Victor 1420 Multilabel Counter; Perkin Elmer, Waltham, MA) at an excitation wavelength of, for example, about 480 nm and an emission wavelength of, for example, about 520 nm. […]
observationType: EE (%)

Using known records, supply EE (%) for CCCCCCCCCOC(=O)CCCCCCCN(CCO)CCCCCCCC(=O)OC(CCCCC)CCCCCCCC (stereo not shown)
95.66%

====

Experiment: Lipid clearance: lipid level in mouse liver tissue (LC-MS/MS)
Assay type: in vivo
Conditions: Table 3E; mouse liver, 6 h
If the reported % Remaining dose at 6 h equals or exceeds 0.08%, assign satisfied. If not, assign not satisfied.

{"compound": "CCCCCCCOC(=O)CCCCCCCCCN(CCO)CCCCCCCCCC(=O)OC(CCCCCC)CCCCCC", "category": "not satisfied"}
{"compound": "CCCCCCCCC(CCCCCCCC)OC(=O)CCCCCCCN(CCO)CCCCCCCC(=O)OCC(C)CCCCCCC (stereo not shown)", "category": "satisfied"}
{"compound": "CCCCC/C=C\\C/C=C\\CCCCCCCCC(CCCCCCCC/C=C\\C/C=C\\CCCCC)OC(=O)CCCN(C)C [MC3, DLin-MC3-DMA, reference compound]", "category": "satisfied"}
{"compound": "CCCCCCCCCOC(=O)CCCCCCCN(CCO)CCCCCCCC(=O)OC(COCCCCCC)COCCCCCC", "category": "not satisfied"}
{"compound": "CCCCCCCCC(CCCCCCCC)OC(=O)CCCCCCCN(CCO)C(C)CCCCCCCCOC(=O)CCCCCCC (stereo not shown)", "category": "satisfied"}

Has CCCCCCCCCOC(=O)C(C)CCCCCCN(CCO)CCCCCCCC(=O)OC(CCCCCCCC)CCCCCCCC (stereo not shown) a recorded % Remaining dose at 6 h greater than or equal to 0.08%?
satisfied

Has CCCCCCCCCC(=O)OC(C)CCCCCCN(CCO)CCCCCCCOC(=O)C(CCCCCCCC)CCCCCCCC (stereo not shown) a recorded % Remaining dose at 6 h greater than or equal to 0.08%?
satisfied

====

System: luciferase (Luc) mRNA
Experiment: Luc expression in liver, lung, spleen and femur 6 hours after intravenous administration
Assay type: in vivo
Details: mice, i.v., 0.5 mpk, in words
observationType: Flux in the spleen

Here's what some known entries look like.
{"compound": "CCCCCCCCCCCOC(=O)CCCCCN(CCO)CCCCCC(=O)OCCCCCCCCCCC", "assaySystem": "luciferase (Luc) mRNA", "testResult": "lowest"}
{"compound": "CCCCCCCCC(CCCCCCCC)OC(=O)CCCCCCCN(CCO)CCCCCCCC(=O)OCC(CCCCCCC)OC (centres unmarked)", "assaySystem": "luciferase (Luc) mRNA", "testResult": "highest"}
{"compound": "CCCCCCCCCOC(=O)CCCCCCCN(CCO)CCCCCCCC(=O)OC(CCC)CCCCCCCC (centres unmarked)", "assaySystem": "luciferase (Luc) mRNA", "testResult": "highest"}
{"compound": "CCCCCCCCC(CCCCCCCC)OC(=O)CCCCCCCN(CCO)CCCC(=O)OCCCCCC", "assaySystem": "luciferase (Luc) mRNA", "testResult": "highest"}
{"compound": "CCCCCCCCCCCOC(=O)CCCCCN(CCO)CCCCCCCC(=O)N(CCCCCCCC)CCCCCCCC", "assaySystem": "luciferase (Luc) mRNA", "testResult": "highest"}

Using known records, supply Flux in the spleen for "CCCCCCCCCOC(=O)CCCCCCCN(CCCCCCCC(=O)OC(CCCCCCCC)CCCCCCCC)CCOC(C)=O"
lowest

Using known records, supply Flux in the spleen for "CCCCCCCCCN(CCCO)CCCCCCCC(=O)OC(CCCCCCCC)CCCCCCCC"
highest
